As shown below, each of these compounds has a reported growth value.
Tested on: DU-145 prostate
run_description: NCI-60 one-dose screen, 48 h (100 = growth as untreated, 0 = no growth, -100 = all killed)
particulars: 10 µM
This is part of a sample that, as a whole, favours compounds with a hit. Of some 83,000 tested, about 20% had one in any assay.
measurement_label: growth (%)

1) O=C(O)CSCSCC(=O)O : 111
2) COC(=O)c1cc(-c2ccc(Cl)c(Cl)c2)[nH]c(=O)c1C#N : 108
3) Cc1cc(N)c(S(=O)(=O)O)c(N)c1 : 96.6
4) COC(=O)c1cccnc1 : 107
5) CCOC(=O)c1ccc(Nc2sc(C(=O)c3cccc([N+](=O)[O-])c3)c(N)c2C#N)cc1 : 29.2
6) Oc1ccc(Cc2ccccc2)c2cccnc12 : 28.9
7) CC(=O)c1ccc2c(ccc3ccccc32)c1 : 111
8) FC(F)(F)c1ccc2c(c1)N(CCCN1CCN(C3CC3)CC1)c1ccccc1S2 : 2.25
9) C#CC(C)(O)c1ccc(Cl)cc1 (stereo unspecified) : 112
10) CCC(=O)Oc1ccc(OC)cc1 : 98.3
11) CC1=CC(C)(C)NC(=S)N1c1ccc(S(=O)(=O)O)c2cccc(S(=O)(=O)O)c12 : 111
12) Nc1ccc(N=Nc2ccc(S(=O)(=O)O)cc2)c2ccccc12 : 106
13) CC1(O)OC(COc2ccc(Cl)cc2)COC1O (stereo unspecified) : 108
14) Oc1ccc(O)cc1 : 105
15) COC(=O)c1ccccc1N(C)C : 108
16) CCCCCC(C)(CC(=O)O)CC(=O)O : 122
17) CC1(O)CCCCC1O (stereo unspecified) : 115
18) O=S(=O)(O)C(Nc1ccccc1)c1ccccc1 (stereo unspecified) : 110
19) CCOC(=O)C(O)C(O)C(=O)OCC (stereo unspecified) : 106
20) COc1ccc(C2OC(N)=C(O)C2=O)cc1OC (stereo unspecified) : 109
21) Cc1cc2ccccc2c(O)c1C#N : 120
22) CCN(CC)c1ccc2nc3ccc(=[N+](CC)CC)cc-3oc2c1 : 37.6
23) S=c1[nH]ccn1-c1ccccc1Cl : 106
24) OCCN(CCO)C(=S)S : 111
25) CCN(CC)CCNc1ccc(CO)c2sc3ccccc3c(=O)c12 : 39.3
26) COc1cc(/C=C/C(=O)c2ccccc2)cc(OC)c1OC : 62.5
27) CCCCC(O)c1ccccc1 (stereo unspecified) : 108
28) NC(=S)N/N=C/c1ccc(N)cc1 : 108
29) COc1ccc(OC)c(/C=C2\CCc3ccccc3C2=O)c1 : 55.5
30) CC1CC(O)CC(C)(C)C1 (stereo unspecified) : 101
31) O=[N+]([O-])c1ccccc1N=Nc1ccc(O)cc1O : 117
32) CC1SC(N)=NC1=O (stereo unspecified) : 117
33) O/N=C/c1ccc(O)cc1O : 112
34) CCCCOC(=O)c1ccc(C(C)C)cc1 : 106
35) CC(C)(N)COS(=O)(=O)O : 111
36) Cc1cc(N)ccc1-c1ccc(N)cc1C : 110
37) CSC[C@H](NC(=O)COc1cccc2cnccc12)C(=O)NC(Cc1ccccc1)C(O)C(=O)N1CSC[C@H]1C(=O)NC(C)(C)C (stereo partly specified) : 98.9
38) C=CC[N+](C)(C)C : 120
39) CCOC(=O)C1OC1c1ccccc1 (stereo unspecified) : 107
40) CCOC(=O)C(CCC(C)C)C(=O)OCC : 107
41) c1ccc(Cc2ccccc2)cc1 : 103
42) O=C(c1ccc(Cl)cc1)c1ccccc1Cl : 123
43) C#CC(C(C)C)N(CCO)CCCC (stereo unspecified) : 112
44) CC(C)CCCC(=O)O : 111
45) O=C1c2ccccc2C(=O)c2c1ccc(C(=O)O)c2[N+](=O)[O-] : 107
46) CC[N+](C)(CC)CCO : 112
47) CCOC(=O)C1=C(Nc2ccc(Br)cc2)C(=O)N(CC)C1 : 107
48) CC(=O)OCC1CCCO1 (stereo unspecified) : 109
49) CC1(C)Nc2cccc3c(N=Nc4ccc(N=Nc5ccccc5)c5ccccc45)ccc(c23)N1 : 120
50) COC(=O)/C=C/C(=O)NC(N)=O : 105
51) CCOC(=O)Nc1cc2c(c(N)n1)N=C(c1ccccc1)CO2 : 10.6
52) Cc1cc(C(C)(C)C)cc(C)c1Br : 121
53) CC(C)(C)n1nc(C2CC2)c(Br)c1NC(=O)c1ccccc1F : 121
54) NNc1ccccc1C(=O)O : 121
55) CC1(C(N)=O)CCC(C(=O)O)C1(C)C (stereo unspecified) : 113
56) CC(=O)c1ccc(N=C(C#N)C2=C(O)c3ccccc3C2=O)cc1 : 113
